biological target: BRK (Homo sapiens); construct: purchased Eurofins Pharma Discovery Services (KinaseProfiler; Cerep BioPrint panel); experiment: kinase selectivity panel; type: biochemical; settings: read-out: percentage of control activity (POC), BRK
Sequence (Q13882 whole entry): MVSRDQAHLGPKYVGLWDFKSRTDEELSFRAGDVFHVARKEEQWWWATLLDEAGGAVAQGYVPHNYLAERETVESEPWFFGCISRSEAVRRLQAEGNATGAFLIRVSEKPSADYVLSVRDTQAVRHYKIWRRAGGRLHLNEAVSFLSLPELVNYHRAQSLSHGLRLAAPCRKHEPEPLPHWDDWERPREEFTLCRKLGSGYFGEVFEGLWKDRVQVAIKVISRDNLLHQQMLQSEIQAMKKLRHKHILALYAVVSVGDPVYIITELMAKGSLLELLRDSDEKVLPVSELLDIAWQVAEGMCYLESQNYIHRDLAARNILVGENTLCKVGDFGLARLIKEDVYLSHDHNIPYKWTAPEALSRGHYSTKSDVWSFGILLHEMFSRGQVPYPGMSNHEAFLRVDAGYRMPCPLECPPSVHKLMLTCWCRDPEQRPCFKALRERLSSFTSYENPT
measure: remaining activity at 10 µM (%)
Provide the reading as a plain figure in %.

Cn1cc(-c2cccc(-c3nc(C(=O)NC4C5CC6CC4CC(O)(C6)C5)c(N)nc3N)c2)cn1 (centres unmarked) [compound 4] ... 71
Cc1ccc(C(=O)NCC2CC2)cc1-c1ccc2c(c1)NC(=O)C21CCCC1 [compound 3] ... 103
CS(=O)(=O)N1CCN(c2ccc(Nc3ncc(C(N)=O)c(NC4CC4)n3)cc2)CC1 [compound 5] ... 39

Q) Form field: remaining activity at 10 µM recorded for COc1c(NC(=O)c2ccc(C)c(-c3nnc4c(NCC(C)(C)C)nccn34)c2)cc(C(C)(C)C)cc1NS(C)(=O)=O [compound 7, reference compound] with BRK (Homo sapiens) (enter value)
A) 98

Q) Form field: remaining activity at 10 µM recorded for CC(C)(C)N1CCC(c2cc(-c3ccc(F)cc3Cl)c3cc[n+]([O-])c(-c4c(Cl)cccc4Cl)c3n2)CC1 [compound 2] with BRK (Homo sapiens) (enter value)
A) 98
